Each recorded value in this set is attributed to the supplement of paper PMC7380943.

system: CLZ3 (HCA2 human fibroblast dual HR-NHEJ reporter); experiment: NHEJ repair efficiency (GFP+ cells) relative to control (log10 fold); higher = more non-homologous end joining; settings: 5 µM; doxycycline 0.5 ug/mL
endpointLabel: NHEJ repair efficiency (log10)
# respond with the number and nothing more

Recorded NHEJ repair efficiency (log10), per entry:
CC(C)=CCC/C(C)=C/C=C/C(C)=C/C=C/C(C)=C/C=C/C=C(C)/C=C/C=C(C)/C=C/C=C(\C)CCC=C(C)C : -0.109
COc1cc(C(=O)OCCCCNC(=N)N)cc(OC)c1O : -0.042

// returns reported NHEJ repair efficiency (log10) for input C[C@H](CCC(=O)O)[C@H]1CC[C@H]2[C@@H]3CC[C@@H]4C[C@H](O)CC[C@]4(C)[C@H]3C[C@H](O)[C@]12C
-0.0363

What value of NHEJ repair efficiency (log10) has been recorded for this entry: O=c1c(O[C@@H]2O[C@H](CO)[C@@H](O)[C@H](O)[C@H]2O)c(-c2ccc(O)c(O)c2)oc2cc(O)cc(O)c12
-0.0426

If you can, please state the reported NHEJ repair efficiency (log10) value of CC1(C)CC[C@]2(C(=O)O[C@@H]3O[C@H](CO[C@@H]4O[C@H](CO)[C@@H](O)[C@H](O)[C@H]4O)[C@@H](O)[C@H](O)[C@H]3O)CC[C@]3(C)C(=CC[C@@H]4[C@@]5(C)CC[C@H](O[C@@H]6OC[C@H](O)[C@H](O)[C@H]6O)[C@@](C)(CO)[C@@H]5CC[C@]43C)[C@@H]2C1 .
0.328

----------
system: CLZ3 (HCA2 human fibroblast dual HR-NHEJ reporter); assay: HR repair efficiency (tdTomato+ cells) relative to control (log10 fold); higher = more homologous recombination; details: 5 µM; doxycycline 0.5 ug/mL
Measured HR repair efficiency (log10), listed per entry.
// print number alone

O=C1C[C@@H](c2ccc(O)cc2)Oc2cc(O)cc(O)c21 [Naringenin] : -0.025
COc1cc2c(cc1O)CC[n+]1cc3c(OC)c(OC)ccc3cc1-2 [Jateorrhizine] : -0.189
COc1ccc(-c2cc(=O)c3c(O)c(OC)c(O)c(OC)c3o2)cc1 [Nevadensin] : 0.0179
C[C@@]12C[C@@]3(O)O[C@@H](O1)[C@]1(COC(=O)c4ccc(O)cc4)[C@@H]3C[C@]12O[C@@H]1O[C@H](CO)[C@@H](O)[C@H](O)[C@H]1O [Oxypaeoniflorin] : 0.0237
COc1ccc2cc1Oc1ccc(cc1)C[C@H]1c3cc(c(OC)cc3CCN1C)Oc1c(OC)c(OC)cc3c1[C@H](C2)N(C)CC3 [Tetrandrine] : -0.328

Reported HR repair efficiency (log10), molecule Cc1ccc(C(C)C)cc1O [Carvacrol] : ____
-0.173

----------
system: CLZ3 (HCA2 human fibroblast dual HR-NHEJ reporter); assay: NHEJ repair efficiency (GFP+ cells) relative to control (log10 fold); higher = more non-homologous end joining; conditions: 5 µM; doxycycline 0.5 ug/mL
endpointLabel: NHEJ repair efficiency (log10)

See these solved cases before continuing.
CC1(C)OC(=O)C=C[C@]2(C)[C@H]3CC[C@@]4(C)[C@H](c5ccoc5)OC(=O)[C@H]5O[C@]54[C@]3(C)C(=O)C[C@@H]12 : -0.0357
Cc1c(O)cc2c(c1O)C(=O)c1ccc(O)c(O)c1C2=O [3-Hydroxymorindone] : -0.105
O=C(C=Cc1ccc(O)c(O)c1)O[C@@H]1C[C@@](O)(C(=O)O)C[C@@H](O)[C@@H]1O : -0.0761

Observed NHEJ repair efficiency (log10) on CLZ3 (HCA2 human fibroblast dual HR-NHEJ reporter) for Oc1cc(O)c2c(c1)O[C@H](c1cc(O)c(O)c(O)c1)[C@H](O)C2 [(-)Epigallocatechin] , please.
-0.0905
